Data origin, for the record: the kinase profiling compilation of Christmann-Franck et al. (2016)

- testedOn: UniProt Q16539
- Sequence (Q16539 whole entry, looked up): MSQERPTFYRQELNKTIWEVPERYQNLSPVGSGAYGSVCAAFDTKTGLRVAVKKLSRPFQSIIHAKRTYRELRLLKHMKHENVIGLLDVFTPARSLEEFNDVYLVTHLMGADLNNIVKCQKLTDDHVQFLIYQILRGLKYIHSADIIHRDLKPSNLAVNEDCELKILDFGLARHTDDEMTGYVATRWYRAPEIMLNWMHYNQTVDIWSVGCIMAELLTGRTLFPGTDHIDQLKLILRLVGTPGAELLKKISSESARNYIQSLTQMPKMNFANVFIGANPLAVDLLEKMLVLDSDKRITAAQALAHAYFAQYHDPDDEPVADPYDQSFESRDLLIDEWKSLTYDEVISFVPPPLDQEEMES
pKi: −log10 of the molar value.
measuredParameter: pKi

structuresmiles=COc1cc2nccc(Oc3ccc(NC(=O)Nc4cc(C)on4)c(Cl)c3)c2cc1OC measuredparameter=pKi number=6.58

* * *

This section presents molecules with their documented inhibition values.
- testedOn: UniProt:Q16566
- Sequence (Q16566 whole entry, looked up): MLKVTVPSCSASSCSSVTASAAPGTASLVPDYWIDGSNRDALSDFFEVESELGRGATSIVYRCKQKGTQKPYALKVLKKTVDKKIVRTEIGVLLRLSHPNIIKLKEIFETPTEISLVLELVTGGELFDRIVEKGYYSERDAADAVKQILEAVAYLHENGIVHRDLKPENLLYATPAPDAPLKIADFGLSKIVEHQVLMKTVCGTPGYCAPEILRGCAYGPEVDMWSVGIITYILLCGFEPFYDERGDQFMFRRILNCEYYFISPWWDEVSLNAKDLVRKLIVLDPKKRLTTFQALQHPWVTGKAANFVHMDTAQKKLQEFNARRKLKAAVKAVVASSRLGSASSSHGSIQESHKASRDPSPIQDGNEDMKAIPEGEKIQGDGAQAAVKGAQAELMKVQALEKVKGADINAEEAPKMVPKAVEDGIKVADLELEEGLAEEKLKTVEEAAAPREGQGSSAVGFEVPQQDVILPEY
- assayRemarks: Caliper, Mobility shift assay off-chip
- details: compound 0.2 µM
measuredParameter: inhibition (%)

structuresmiles=CCN(CC)CCNC(=O)c1c(C)[nH]c(/C=C2\C(=O)Nc3ccc(F)cc32)c1C measuredparameter=inhibition unitabbrev=% number=15.7
structuresmiles=Cc1ccc(Nc2nccc(N(C)c3ccc4c(C)n(C)nc4c3)n2)cc1S(N)(=O)=O measuredparameter=inhibition unitabbrev=% number=-1.2
structuresmiles=CNC(=O)c1cc(Oc2ccc(NC(=O)Nc3ccc(Cl)c(C(F)(F)F)c3)cc2)ccn1 measuredparameter=inhibition unitabbrev=% number=1.9
structuresmiles=COc1cc2c(Oc3ccc4[nH]c(C)cc4c3F)ncnc2cc1OCCCN1CCCC1 measuredparameter=inhibition unitabbrev=% number=-0.6

* * *

Recorded measurements of inhibition, one per entry
- testedOn: CAMK1 (human) (UniProt Q14012)
- Sequence (Q14012 whole entry, looked up): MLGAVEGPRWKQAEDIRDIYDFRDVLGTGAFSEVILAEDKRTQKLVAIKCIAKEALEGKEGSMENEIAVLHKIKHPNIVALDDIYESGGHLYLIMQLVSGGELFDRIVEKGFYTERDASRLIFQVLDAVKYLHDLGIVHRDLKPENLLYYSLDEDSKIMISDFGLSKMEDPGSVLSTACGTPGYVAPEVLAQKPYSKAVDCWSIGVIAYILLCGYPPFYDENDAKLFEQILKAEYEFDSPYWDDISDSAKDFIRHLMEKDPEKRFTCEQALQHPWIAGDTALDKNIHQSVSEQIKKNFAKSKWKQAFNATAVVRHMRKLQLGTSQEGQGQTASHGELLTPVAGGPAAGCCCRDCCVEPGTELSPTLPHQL
- assayRemarks: Caliper, Mobility shift assay off-chip
- details: compound 0.02 µM
measuredParameter: inhibition (%)

structuresmiles=Cc1ccc(Nc2nccc(N(C)c3ccc4c(C)n(C)nc4c3)n2)cc1S(N)(=O)=O testedon="CAMK1 (human) (UniProt Q14012)" measuredparameter=inhibition number=-2.3
structuresmiles=CNC(=O)c1cc(Oc2ccc(NC(=O)Nc3ccc(Cl)c(C(F)(F)F)c3)cc2)ccn1 testedon="CAMK1 (human) (UniProt Q14012)" measuredparameter=inhibition number=-4.6
structuresmiles=COc1cc2c(Oc3ccc4[nH]c(C)cc4c3F)ncnc2cc1OCCCN1CCCC1 testedon="CAMK1 (human) (UniProt Q14012)" measuredparameter=inhibition number=-3.1
structuresmiles=CNC(=O)c1ccccc1Sc1ccc2c(/C=C/c3ccccn3)n[nH]c2c1 testedon="CAMK1 (human) (UniProt Q14012)" measuredparameter=inhibition number=-4.5

* * *

- testedOn: UniProt O14733
- Sequence (O14733 whole entry, looked up): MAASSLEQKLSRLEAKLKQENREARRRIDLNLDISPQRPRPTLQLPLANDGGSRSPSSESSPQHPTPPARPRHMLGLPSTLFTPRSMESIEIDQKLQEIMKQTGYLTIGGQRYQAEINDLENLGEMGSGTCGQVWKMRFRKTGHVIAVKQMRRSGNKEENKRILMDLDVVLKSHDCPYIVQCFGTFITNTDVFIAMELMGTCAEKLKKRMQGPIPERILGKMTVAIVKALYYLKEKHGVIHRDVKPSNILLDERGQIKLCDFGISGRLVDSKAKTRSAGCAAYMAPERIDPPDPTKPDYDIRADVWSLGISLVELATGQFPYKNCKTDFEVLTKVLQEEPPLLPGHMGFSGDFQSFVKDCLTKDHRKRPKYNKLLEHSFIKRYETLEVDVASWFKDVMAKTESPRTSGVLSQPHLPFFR
- assayRemarks: ELISA
- details: compound 0.02 µM
measuredParameter: inhibition (%)

structuresmiles=Cc1ccc(Nc2nccc(N(C)c3ccc4c(C)n(C)nc4c3)n2)cc1S(N)(=O)=O unitabbrev=% number=3.2
structuresmiles=COc1cc2c(Oc3ccc4[nH]c(C)cc4c3F)ncnc2cc1OCCCN1CCCC1 unitabbrev=% number=-6.9
structuresmiles=CNC(=O)c1cc(Oc2ccc(NC(=O)Nc3ccc(Cl)c(C(F)(F)F)c3)cc2)ccn1 unitabbrev=% number=-0.7
structuresmiles=CNC(=O)c1ccccc1Sc1ccc2c(/C=C/c3ccccn3)n[nH]c2c1 unitabbrev=% number=-3.4

* * *

inhibition values for the compounds below.
- testedOn: ALK NPM1 (human) (UniProt P06748+Q9UM73)
- Sequence (P06748 whole entry, looked up): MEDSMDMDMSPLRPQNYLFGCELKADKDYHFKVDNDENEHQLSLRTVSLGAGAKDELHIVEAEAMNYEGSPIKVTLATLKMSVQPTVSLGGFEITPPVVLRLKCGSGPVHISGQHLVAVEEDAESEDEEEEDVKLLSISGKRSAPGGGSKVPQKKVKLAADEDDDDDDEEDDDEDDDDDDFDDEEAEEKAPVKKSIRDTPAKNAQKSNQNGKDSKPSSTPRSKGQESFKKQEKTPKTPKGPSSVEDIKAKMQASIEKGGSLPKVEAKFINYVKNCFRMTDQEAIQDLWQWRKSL
- Sequence (Q9UM73 whole entry, looked up): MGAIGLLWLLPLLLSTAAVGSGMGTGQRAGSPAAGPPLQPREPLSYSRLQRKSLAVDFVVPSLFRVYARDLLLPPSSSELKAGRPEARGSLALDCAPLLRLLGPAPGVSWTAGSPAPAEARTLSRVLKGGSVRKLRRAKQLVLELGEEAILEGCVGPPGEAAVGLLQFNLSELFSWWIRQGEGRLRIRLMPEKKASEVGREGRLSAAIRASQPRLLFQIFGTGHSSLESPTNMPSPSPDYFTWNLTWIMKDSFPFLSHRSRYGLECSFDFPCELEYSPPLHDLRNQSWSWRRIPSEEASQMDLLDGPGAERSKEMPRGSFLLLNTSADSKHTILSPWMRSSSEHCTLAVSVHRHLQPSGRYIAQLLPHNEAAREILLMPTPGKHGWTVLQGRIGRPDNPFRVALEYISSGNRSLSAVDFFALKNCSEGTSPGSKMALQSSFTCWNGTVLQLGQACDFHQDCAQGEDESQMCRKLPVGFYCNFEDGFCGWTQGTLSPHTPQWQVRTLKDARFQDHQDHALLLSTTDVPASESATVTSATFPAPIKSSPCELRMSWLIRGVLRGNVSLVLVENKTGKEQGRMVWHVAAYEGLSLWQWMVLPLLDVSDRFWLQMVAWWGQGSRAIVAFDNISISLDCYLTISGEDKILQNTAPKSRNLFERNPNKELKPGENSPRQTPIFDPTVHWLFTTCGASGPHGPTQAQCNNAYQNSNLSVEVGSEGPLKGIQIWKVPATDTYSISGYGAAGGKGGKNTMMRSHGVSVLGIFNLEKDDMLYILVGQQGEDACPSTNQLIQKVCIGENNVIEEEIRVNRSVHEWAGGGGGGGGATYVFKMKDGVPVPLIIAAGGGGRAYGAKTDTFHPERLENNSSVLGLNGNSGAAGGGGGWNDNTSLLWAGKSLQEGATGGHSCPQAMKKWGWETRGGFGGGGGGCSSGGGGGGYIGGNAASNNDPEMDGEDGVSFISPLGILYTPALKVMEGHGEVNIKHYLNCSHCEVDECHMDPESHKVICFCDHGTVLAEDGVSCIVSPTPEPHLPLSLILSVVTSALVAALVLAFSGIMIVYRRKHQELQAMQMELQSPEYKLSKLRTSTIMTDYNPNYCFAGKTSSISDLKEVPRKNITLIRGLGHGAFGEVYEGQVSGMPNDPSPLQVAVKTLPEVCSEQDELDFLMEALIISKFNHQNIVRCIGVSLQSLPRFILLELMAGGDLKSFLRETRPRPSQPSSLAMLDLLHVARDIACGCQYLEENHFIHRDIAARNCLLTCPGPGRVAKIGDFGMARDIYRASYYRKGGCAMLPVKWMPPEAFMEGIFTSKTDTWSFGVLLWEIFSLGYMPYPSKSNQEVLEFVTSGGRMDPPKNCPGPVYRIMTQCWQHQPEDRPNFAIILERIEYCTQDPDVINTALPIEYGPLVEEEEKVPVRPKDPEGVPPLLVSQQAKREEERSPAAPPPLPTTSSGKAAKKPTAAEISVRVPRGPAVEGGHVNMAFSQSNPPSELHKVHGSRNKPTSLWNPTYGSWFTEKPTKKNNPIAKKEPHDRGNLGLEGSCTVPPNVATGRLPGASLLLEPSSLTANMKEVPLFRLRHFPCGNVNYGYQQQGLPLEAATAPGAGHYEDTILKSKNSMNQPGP
- assayRemarks: Caliper, Mobility shift assay off-chip
- details: compound 0.2 µM
measuredParameter: inhibition

structuresmiles=CCN(CC)CCNC(=O)c1c(C)[nH]c(/C=C2\C(=O)Nc3ccc(F)cc32)c1C testedon="ALK NPM1 (human) (UniProt P06748+Q9UM73)" measuredparameter=inhibition result=76%
structuresmiles=COc1cc2c(Oc3ccc4[nH]c(C)cc4c3F)ncnc2cc1OCCCN1CCCC1 testedon="ALK NPM1 (human) (UniProt P06748+Q9UM73)" measuredparameter=inhibition result=5.1%
structuresmiles=Cc1ccc(Nc2nccc(N(C)c3ccc4c(C)n(C)nc4c3)n2)cc1S(N)(=O)=O testedon="ALK NPM1 (human) (UniProt P06748+Q9UM73)" measuredparameter=inhibition result=2.1%
structuresmiles=CNC(=O)c1cc(Oc2ccc(NC(=O)Nc3ccc(Cl)c(C(F)(F)F)c3)cc2)ccn1 testedon="ALK NPM1 (human) (UniProt P06748+Q9UM73)" measuredparameter=inhibition result=5%
